- Tested on: HCC-2998 colon
- Procedure Text: NCI tumour cell line growth inhibition, 48 h
Measured TGI values are reported for all entries that follow.

- Compound: "CC(C)(O)CCc1cccc(C(=O)c2cnn(-c3ccc(F)cc3)c2N)c1"
  Reported Value: "> 25 µM"
- Compound: "COc1ccc(CCc2ccc3c(c2)OCO3)cc1"
  Reported Value: "> 100 µM"

Ask: Dear colleague, I am looking for the recorded TGI of the following compound: COc1ccc(/C=C2\Sc3nnc(-c4ccccc4)n3N=C2c2cc(F)c(Cl)cc2Cl)cc1OC
Reply: 47.2 µM

Ask: Dear colleague, I am looking for the recorded TGI of the following compound: CCOC(=O)C1=C(O)C(=O)c2ccoc2C1=O
Reply: > 100 µM

Ask: Dear colleague, I am looking for the recorded TGI of the following compound: COc1cc([C@@H]2OC(=O)C3C2C(=O)O[C@H]3c2ccc(O)c(OC)c2)ccc1O (some centres undefined)
Reply: > 100 µM
